Taken from the supplement of paper PMC4862054.

# System: CAL-85-1
# protocol-text: normalised response (% of control), CellTox Green; higher = less cell death (100 = DMSO, 0 = benzethonium chloride kill control)
# protocol-conditions: incubation time: 72 h
measured-attribute: normalised response
Mention the unit after the number when you answer.

COc1cc2c(NC3CCN(C(C)C)CC3)nc(N3CCC(F)(F)CC3)nc2cc1OCCCN1CCCC1 [UNC0642] (10000 nM)
-18.1%
COc1cc(OC2CCN(C)CC2)ccc1Nc1ncc2c(n1)n(C1CCCC1)c(=O)n2C [AZ 3146] (1000 nM)
103%

Please examine the following record next.
# assay system CAL-85-1: give normalised response of O=C(/C=C/c1cccc(S(=O)(=O)Nc2ccccc2)c1)NO [Belinostat] (100 nM) 94.8%
